Origin of measurements: PubChem BioAssay (NCI)

- System: A498 renal
- experiment description: NCI tumour cell line growth inhibition, 48 h
Reported TGI values follow for various compounds

compound | qualifier sign | TGI / µM
NCCCNCCCCNC(=O)C(O)NC(=O)CCCCCCN=C(N)N (stereo not given) | > | 5000
CCN(CC)c1ccc(C(=O)c2ccc(N(CC)CC)cc2)cc1 | = | 4.14
O=[N+]([O-])c1ccc(N/N=C/c2ccc(OCCCCCCCCCCCO)cc2)c([N+](=O)[O-])c1 | > | 100
O=C(NNC(=S)NC1CCCCC1)c1csc(NC(=S)NC2CCCCC2)n1 | = | 36.3
Cc1ccc(Cl)cc1NC(=O)c1sc2nc3c(cc2c1N)C(=O)CCC3 | > | 100
O=C1c2ccccc2-c2c1c1ccccc1c(=O)n2CCCn1ccnc1 | = | 14.1
O=C1CSC(c2cccc([N+](=O)[O-])c2)N1c1ccc(-n2c(-c3ccccc3)nc3ccccc3c2=O)cc1 (stereo not given) | > | 100
CC(=O)Nc1ccc(C2SCc3nc4ccccc4n32)cc1 (stereo not given) | = | 28.6
CCC(C#N)NCc1cccc(CNC(C#N)CC)c1 (stereo not given) | > | 100
O=C1CCc2c(sc3[nH]c(=S)n(Cc4ccc(Cl)cc4)c(=O)c23)C1 | = | 7.25
